From: patent US20250122169A1

Assignment: determine reported Emax for the given compounds.
STUDY_SYSTEM: PPARG/RXRA LBD heterodimer (Homo sapiens)
Construct: 2 nM WT PPARG LBD (E. coli expressed, His-TEV-Q203-Y477); fused on or other part: N-terminal His tag with TEV site on the PPARG LBD
TEST_DETAILS: PPARγ-NCOR1 recruitment assay (TR-FRET)
Assay type: biochemical
SETTINGS: 3 h; maximal extent; T0070907 defined as 100%, DMSO 0%; read-out: % NCOR recruitment relative to T907
Sequence (P37231 231-505 limits assumed): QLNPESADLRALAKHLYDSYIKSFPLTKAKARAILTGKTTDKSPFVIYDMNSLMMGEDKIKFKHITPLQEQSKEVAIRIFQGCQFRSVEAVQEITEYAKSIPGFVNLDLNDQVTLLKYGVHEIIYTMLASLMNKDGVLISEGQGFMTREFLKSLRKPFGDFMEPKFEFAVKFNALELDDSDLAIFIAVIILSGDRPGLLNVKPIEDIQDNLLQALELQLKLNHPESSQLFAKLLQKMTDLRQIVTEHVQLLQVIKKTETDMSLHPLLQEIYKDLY
Sequence (O75376 2251-2273 limits assumed, further chain): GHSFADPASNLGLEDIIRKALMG

Query: Emax; subject: CN(C)CCOc1cnc(C#N)cc1-c1cc(=O)c2c(F)cc(F)cc2[nH]1 > 100%

Try the compound CN(C)C(=O)C1CCN(c2c(F)cc3[nH]c(-c4cc(C#N)ncc4Cl)cc(=O)c3c2F)CC1 > 100%

What do you get for CN1CCN(c2c(F)cc3[nH]c(-c4nc(C#N)ccc4Cl)cc(=O)c3c2F)CC1 ? > 100%

Cool, now CS(=O)(=O)c1cnc(C#N)cc1-c1cc(=O)c2ccc(Cl)cc2[nH]1 > 100%

Next compound: CN(C)C(=O)[C@H]1CCCN(c2c(F)cc3[nH]c(-c4cc(C#N)ncc4Cl)cc(=O)c3c2F)C1 > 100%

Please do the same for CN(C)C(=O)N1CCN(c2c(F)cc3[nH]c(-c4cc(C#N)ncc4Cl)cc(=O)c3c2F)CC1 as well. > 100%

Now try N#Cc1ccc(Cl)c(-c2cc(=O)c3ccccc3[nH]2)n1 . < 100%

What would you report for N#Cc1cc(-c2cc(=O)c3c(F)c(N4CCS(=O)(=O)CC4)c(F)cc3[nH]2)c(Cl)cn1 ? > 100%

Same question for CN1CCN(c2c(F)cc3[nH]c(-c4cc(C#N)ncc4Cl)cc(=O)c3c2F)CC1 please. > 100%

Now consider CS(=O)(=O)c1cnc(C#N)cc1-c1cc(=O)c2c(F)cc(Cl)cc2[nH]1 . > 100%

Request: N#Cc1ccc(Cl)c(-c2cc(=O)c3c(F)c(N4CCS(=O)(=O)CC4)c(F)cc3[nH]2)n1 > 100%

Note, next up: N#Cc1ccc(Cl)c(-c2cc(=O)c3cc(F)c(F)cc3[nH]2)n1 > 100%

Ok, now CN1CCN(c2c(F)cc3[nH]c(-c4cc(C#N)ncc4Cl)cc(=O)c3c2F)CC1=O > 100%

Try the compound CN1CCC(c2c(F)cc3[nH]c(-c4cc(C#N)ncc4Cl)cc(=O)c3c2F)CC1 > 100%

Subsequent entry: CN1CCN(c2cc3c(=O)cc(-c4cc(C#N)ncc4Cl)[nH]c3cc2Cl)CC1 > 100%

Next record, please: CSc1ccc(C#N)nc1-c1cc(=O)c2c(F)cc(F)cc2[nH]1 > 100%

Field entry: CN(C)C(=O)[C@H]1CCN(c2c(F)cc3[nH]c(-c4cc(C#N)ncc4Cl)cc(=O)c3c2F)C1 > 100%

Another compound: CN(C)C(=O)[C@@H]1CCCN(c2c(F)cc3[nH]c(-c4cc(C#N)ncc4Cl)cc(=O)c3c2F)C1 > 100%

Now give it for CN(C)C(=O)[C@@H]1CCN(c2c(F)cc3[nH]c(-c4cc(C#N)ncc4Cl)cc(=O)c3c2F)C1 too. > 100%

Can you check COc1cnc(C#N)cc1-c1cc(=O)c2c(F)cc(F)cc2[nH]1 next? < 100%

Same lookup for N#Cc1cnc(Cl)c(-c2cc(=O)c3c(F)cc(F)cc3[nH]2)c1 , please. > 100%

Another: N#Cc1ncc(Cl)c(-c2cc(=O)c3c(F)cc(F)cc3[nH]2)n1 > 100%

And what about the compound N#Cc1cc(-c2cc(=O)c3ccc(Cl)cc3[nH]2)c(Cl)cn1 ? > 100%

Quick one: CS(=O)(=O)c1ccc(C#N)nc1-c1cc(=O)c2c(F)cc(F)cc2[nH]1 > 100%

Another: N#Cc1ccc(Cl)c(-c2cc(=O)c3c(F)cc(F)cc3[nH]2)n1 > 100%

Also COc1ccc(C#N)nc1-c1cc(=O)c2c(F)cc(F)cc2[nH]1 , if possible. > 100%

What about this compound? CN1CCC(c2c(F)cc3[nH]c(-c4nc(C#N)ccc4Cl)cc(=O)c3c2F)CC1 > 100%

What do you get for N#Cc1ccc(Cl)c(-c2cc(=O)c3ccc(Cl)cc3[nH]2)n1 ? > 100%

Also CN(C)C(=O)[C@H]1CCCN(c2c(F)cc3[nH]c(-c4cc(C#N)ncc4S(C)(=O)=O)cc(=O)c3c2F)C1 (single isomer, unassigned) ? > 100%

Record: CCSc1cnc(C#N)cc1-c1cc(=O)c2c(F)cc(F)cc2[nH]1 < 100%

Ok, now C[S+]([O-])c1cnc(C#N)cc1-c1cc(=O)c2c(F)cc(F)cc2[nH]1 (centres unmarked) > 100%

Check N#Cc1cc(-c2cc(=O)c3c(F)cc(F)cc3[nH]2)c(Cl)cn1 too. > 100%

----------
Please provide measured pEC50 for the entries that follow.
STUDY_SYSTEM: PPARG/RXRA LBD heterodimer (Homo sapiens)
Construct: 2 nM WT PPARG LBD (E. coli expressed, His-TEV-Q203-Y477); fused on or other part: N-terminal His tag with TEV site on the PPARG LBD
TEST_DETAILS: PPARγ-NCOR1 recruitment assay (TR-FRET)
Format: biochemical
SETTINGS: TR-FRET, NCOR1 ID2 peptide, 80 nM Rosiglitazone, 3 hours; read-out: PPARG-NCOR recruitment assay EC50
pEC50: −log10 of the molar value.

For the compound shown here, CSc1ccc(C#N)nc1-c1cc(=O)c2c(F)cc(F)cc2[nH]1 [Example 8] , give the reported pEC50. < 5.00

Thanks! And COc1ccc(C#N)nc1-c1cc(=O)c2c(F)cc(F)cc2[nH]1 [Example 7] ? < 5.00

// next record CN(C)C(=O)[C@@H]1CCCN(c2c(F)cc3[nH]c(-c4cc(C#N)ncc4Cl)cc(=O)c3c2F)C1 [Example 22] > 8.00

Please do the same for CN1CCN(c2c(F)cc3[nH]c(-c4nc(C#N)ccc4Cl)cc(=O)c3c2F)CC1 [Example 13] as well. 7.00 to 8.00

Consider next the compound N#Cc1ccc(Cl)c(-c2cc(=O)c3ccccc3[nH]2)n1 [Example 5] in the same way. 7.00 to 8.00

Now give it for CN1CCN(c2c(F)cc3[nH]c(-c4cc(C#N)ncc4Cl)cc(=O)c3c2F)CC1 [Example 15] too. 7.00 to 8.00

Ok, now CN1CCC(c2c(F)cc3[nH]c(-c4nc(C#N)ccc4Cl)cc(=O)c3c2F)CC1 [Example 16] 7.00 to 8.00

And then CN(C)C(=O)N1CCN(c2c(F)cc3[nH]c(-c4cc(C#N)ncc4Cl)cc(=O)c3c2F)CC1 [Example 21] , what is it? > 8.00

Same for CN(C)C(=O)[C@@H]1CCN(c2c(F)cc3[nH]c(-c4cc(C#N)ncc4Cl)cc(=O)c3c2F)C1 [Example 25] > 8.00

Same lookup for N#Cc1ccc(Cl)c(-c2cc(=O)c3c(F)c(N4CCS(=O)(=O)CC4)c(F)cc3[nH]2)n1 [Example 17] , please. 7.00 to 8.00

Entry to check: N#Cc1cc(-c2cc(=O)c3c(F)c(N4CCS(=O)(=O)CC4)c(F)cc3[nH]2)c(Cl)cn1 [Example 18] 7.00 to 8.00

Also, CN(C)CCOc1cnc(C#N)cc1-c1cc(=O)c2c(F)cc(F)cc2[nH]1 [Example 11] please. 5.00 to 6.00

Likewise for N#Cc1cc(-c2cc(=O)c3ccc(Cl)cc3[nH]2)c(Cl)cn1 [Example 4] ? > 8.00

And the next one, CS(=O)(=O)c1cnc(C#N)cc1-c1cc(=O)c2c(F)cc(Cl)cc2[nH]1 [Example 31] ? > 8.00

Check N#Cc1ccc(Cl)c(-c2cc(=O)c3c(F)cc(F)cc3[nH]2)n1 [Example 3] too. > 8.00

Try CS(=O)(=O)c1ccc(C#N)nc1-c1cc(=O)c2c(F)cc(F)cc2[nH]1 [Example 32] next. > 8.00

----------
STUDY_SYSTEM: PPARG/RXRA LBD heterodimer (Homo sapiens, UniProt P37231)
Construct: His-TEV-Q203-Y477; Uniprot ID P37231-2; made in house; host or cells: E. coli
TEST_DETAILS: PPARγ-MED1 blockade assay (TR-FRET)
Type: biochemical
SETTINGS: TR-FRET, MED1 LxxLL peptide, 80 nM Rosiglitazone, 3 hours
Sequence (P37231 231-505): as the sequence (P37231 231-505 limits assumed) above
Sequence (P19793 228-462 partner limits assumed): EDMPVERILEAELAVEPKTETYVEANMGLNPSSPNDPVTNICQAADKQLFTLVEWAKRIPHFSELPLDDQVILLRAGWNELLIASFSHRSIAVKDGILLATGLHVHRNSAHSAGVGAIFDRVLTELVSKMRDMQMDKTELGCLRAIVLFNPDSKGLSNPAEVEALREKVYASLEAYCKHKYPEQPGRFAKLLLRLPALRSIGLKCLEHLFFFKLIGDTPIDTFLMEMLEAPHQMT
MEASURED_PARAMETER: EC50

What value of measured EC50 is listed for CN(C)C(=O)C1CCN(c2c(F)cc3[nH]c(-c4cc(C#N)ncc4Cl)cc(=O)c3c2F)CC1 ? 10 to 100 nM

Query CN1CCC(c2c(F)cc3[nH]c(-c4nc(C#N)ccc4Cl)cc(=O)c3c2F)CC1 next 10 to 100 nM

Input N#Cc1ccc(Cl)c(-c2cc(=O)c3cc(F)c(F)cc3[nH]2)n1 10 to 100 nM

Can you handle COc1ccc(C#N)nc1-c1cc(=O)c2c(F)cc(F)cc2[nH]1 next? > 10000 nM

What about this compound? C[S+]([O-])c1cnc(C#N)cc1-c1cc(=O)c2c(F)cc(F)cc2[nH]1 (stereo not shown) 10 to 100 nM

Repeat for the following compound: N#Cc1ncc(Cl)c(-c2cc(=O)c3c(F)cc(F)cc3[nH]2)n1 < 10 nM

Param item: CS(=O)(=O)c1cnc(C#N)cc1-c1cc(=O)c2c(F)cc(Cl)cc2[nH]1 < 10 nM

Please do the same for CN(C)C(=O)[C@H]1CCCN(c2c(F)cc3[nH]c(-c4cc(C#N)ncc4Cl)cc(=O)c3c2F)C1 as well. < 10 nM

Proceed to CN1CCN(c2c(F)cc3[nH]c(-c4cc(C#N)ncc4Cl)cc(=O)c3c2F)CC1=O 10 to 100 nM

How about this compound: CN(C)C(=O)N1CCN(c2c(F)cc3[nH]c(-c4cc(C#N)ncc4Cl)cc(=O)c3c2F)CC1 < 10 nM

Also need COc1cnc(C#N)cc1-c1cc(=O)c2c(F)cc(F)cc2[nH]1 , thanks. 100 to 1000 nM

Quick one: N#Cc1cc(-c2cc(=O)c3c(F)c(N4CCS(=O)(=O)CC4)c(F)cc3[nH]2)c(Cl)cn1 10 to 100 nM

Quick one: CS(=O)(=O)c1cnc(C#N)cc1-c1cc(=O)c2ccc(Cl)cc2[nH]1 < 10 nM

Further, for CCSc1cnc(C#N)cc1-c1cc(=O)c2c(F)cc(F)cc2[nH]1 ? > 10000 nM

Check N#Cc1ccc(Cl)c(-c2cc(=O)c3ccccc3[nH]2)n1 too. 10 to 100 nM

N#Cc1ccc(Cl)c(-c2cc(=O)c3ccc(Cl)cc3[nH]2)n1 ? < 10 nM

Again, but for CN1CCN(c2c(F)cc3[nH]c(-c4cc(C#N)ncc4Cl)cc(=O)c3c2F)CC1 10 to 100 nM

Next compound: CN(C)C(=O)[C@H]1CCN(c2c(F)cc3[nH]c(-c4cc(C#N)ncc4Cl)cc(=O)c3c2F)C1 < 10 nM

Queued: CN1CCN(c2cc3c(=O)cc(-c4cc(C#N)ncc4Cl)[nH]c3cc2Cl)CC1 10 to 100 nM

And what about the compound N#Cc1ccc(Cl)c(-c2cc(=O)c3c(F)c(N4CCS(=O)(=O)CC4)c(F)cc3[nH]2)n1 ? 10 to 100 nM

And for CSc1ccc(C#N)nc1-c1cc(=O)c2c(F)cc(F)cc2[nH]1 ? > 10000 nM

Continue with CS(=O)(=O)c1ccc(C#N)nc1-c1cc(=O)c2c(F)cc(F)cc2[nH]1 < 10 nM

What do you have for N#Cc1cnc(Cl)c(-c2cc(=O)c3c(F)cc(F)cc3[nH]2)c1 ? 10 to 100 nM

CN(C)C(=O)[C@H]1CCCN(c2c(F)cc3[nH]c(-c4cc(C#N)ncc4S(C)(=O)=O)cc(=O)c3c2F)C1 (single isomer, unassigned) ? < 10 nM

Let us now turn to N#Cc1cc(-c2cc(=O)c3c(F)cc(F)cc3[nH]2)c(Cl)cn1 < 10 nM

What do you get for CN(C)CCOc1cnc(C#N)cc1-c1cc(=O)c2c(F)cc(F)cc2[nH]1 ? 1000 to 10000 nM

Let us now turn to N#Cc1ccc(Cl)c(-c2cc(=O)c3c(F)cc(F)cc3[nH]2)n1 < 10 nM

Check N#Cc1cc(-c2cc(=O)c3ccc(Cl)cc3[nH]2)c(Cl)cn1 too. < 10 nM
